Form field: Ki (one value per entry).
target: Bcl-2 (Homo sapiens, UniProt P10415)
Sequence (P10415 whole entry): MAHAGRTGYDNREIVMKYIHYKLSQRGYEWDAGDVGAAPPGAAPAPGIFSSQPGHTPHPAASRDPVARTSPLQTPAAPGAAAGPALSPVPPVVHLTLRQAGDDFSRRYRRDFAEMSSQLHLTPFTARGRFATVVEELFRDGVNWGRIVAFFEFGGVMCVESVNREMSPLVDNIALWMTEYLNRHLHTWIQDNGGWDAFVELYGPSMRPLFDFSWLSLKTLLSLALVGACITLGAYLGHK

The examples below pair each entry with its known result.
| structure as smiles | Ki |
| --- | --- |
| CC1(C)CCC(CN2CCN(c3ccc(C(=O)NS(=O)(=O)c4ccc(N[C@H]5CC[C@H](N6CCOCC6)CC5)c([N+](=O)[O-])c4)c(Oc4cnc(N)c(Cl)c4)c3)CC2)=C(c2ccc(Cl)cc2)C1 | < 0.01 nM |
| CC1(C)CCC(CN2CCN(c3ccc(C(=O)NS(=O)(=O)c4cnc(OCC5(F)CCOCC5)c(Cl)c4)c(Oc4cccc5[nH]ncc45)c3)CC2)=C(c2ccc(Cl)cc2)C1 | < 0.01 nM |

// below: Ki requested for another compound
Recorded Ki (compound `CC1(C)CCC(CN2CCN(c3ccc(C(=O)NS(=O)(=O)c4ccc(NCC5CCOCC5)c([N+](=O)[O-])c4)c(Oc4ccc5[nH]ccc5c4)c3)CC2)=C(c2ccc(Cl)cc2)C1` ): 0.119 nM

----------
test system: FL5.12-Bcl-XL cells; assay: Cellular efficacy in FL5.12 cells dependent on Bcl-XL; format: cell-based, murine; conditions: Mus musculus, 3% FBS
endpoint name: EC50 (nM)
// note: answer is a bare numeric in nM

Field: example entries. Status: answers known.
| molecule | EC50 / nM |
| --- | --- |
| CC1(C)CCC(CN2CCN(c3ccc(C(=O)NS(=O)(=O)c4ccc(N[C@H]5CC[C@H](N6CCOCC6)CC5)c([N+](=O)[O-])c4)c(Oc4cnc5[nH]ccc5c4)c3)CC2)=C(c2ccc(Cl)cc2)C1 [Compound 4] | 70 |
| CC1(C)CCC(CN2CCN(c3ccc(C(=O)NS(=O)(=O)c4cnc(OCC5(F)CCOCC5)c(Cl)c4)c(Oc4cccc5[nH]ncc45)c3)CC2)=C(c2ccc(Cl)cc2)C1 [Compound 12] | 59 |

Note: attention shifts to another entry.
Entry CC1(C)CCC(CN2CCN(c3ccc(C(=O)NS(=O)(=O)c4ccc(NCC5CCOCC5)c([N+](=O)[O-])c4)c(Oc4ccc5[nH]ccc5c4)c3)CC2)=C(c2ccc(Cl)cc2)C1 [Compound 3] , EC50 reported as 1060

----------
molecular target: UniProt Q07820
Sequence (Q07820 whole entry): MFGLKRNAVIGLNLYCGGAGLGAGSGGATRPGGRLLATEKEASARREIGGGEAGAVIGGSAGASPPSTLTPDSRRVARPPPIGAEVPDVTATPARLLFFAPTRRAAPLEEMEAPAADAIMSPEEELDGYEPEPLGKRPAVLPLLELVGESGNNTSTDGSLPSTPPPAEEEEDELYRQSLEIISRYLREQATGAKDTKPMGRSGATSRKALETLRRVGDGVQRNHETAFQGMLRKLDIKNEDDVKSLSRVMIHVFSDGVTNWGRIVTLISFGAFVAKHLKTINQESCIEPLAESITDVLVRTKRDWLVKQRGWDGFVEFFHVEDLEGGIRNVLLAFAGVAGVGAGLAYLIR
endpoint name: Ki

Known Ki results, listed for orientation:
| structure as smiles | system | meas value |
| --- | --- | --- |
| CC1(C)CCC(CN2CCN(c3ccc(C(=O)NS(=O)(=O)c4ccc(NC[C@H]5CC[C@](C)(O)CC5)c([N+](=O)[O-])c4)c(Oc4cnc5[nH]ccc5c4)c3)CC2)=C(c2ccc(Cl)cc2)C1 | UniProt Q07820 | > 440 nM |
| CC1(C)CCC(CN2CCN(c3ccc(C(=O)NS(=O)(=O)c4ccc(N[C@H]5CC[C@H](N6CCOCC6)CC5)c([N+](=O)[O-])c4)c(Oc4cnc(N)c(Cl)c4)c3)CC2)=C(c2ccc(Cl)cc2)C1 | UniProt Q07820 | > 440 nM |

// Ki (UniProt Q07820) for `CC1(C)CCC(CN2CCN(c3ccc(C(=O)NS(=O)(=O)c4ccc(NCC5CCOCC5)c([N+](=O)[O-])c4)c(Oc4cnc5[nH]ccc5c4)c3)CC2)=C(c2ccc(Cl)cc2)C1` = > 440 nM
